# assay details: recombinant UMI read abundance after kanamycin selection (control-corrected) (log10(CPM+1)); higher = more efficient recombination; extreme values may be limits of the assay; sequences stand for … in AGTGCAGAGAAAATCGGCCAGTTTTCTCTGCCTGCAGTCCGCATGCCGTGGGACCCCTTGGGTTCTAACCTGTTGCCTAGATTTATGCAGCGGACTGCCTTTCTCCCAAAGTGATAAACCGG…AGGTTGGTTTCACT; site = the 11-nt donor;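 further: IS621 bridge recombinase in Escherichia coli cells against a fixed T5 target plasmid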
readout label: recombinant UMI read abundance (log10)

Query: Using the record for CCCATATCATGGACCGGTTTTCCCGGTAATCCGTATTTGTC (site CCCATATCTGA) , report its recombinant UMI read abundance (log10).
Result: 0.747

Query: // same read-out, input: AGAGCTTCATGGACCGGTTTTCCCGGTAATCCGTATTTGGG (site AGAGCTTCTCC)
Result: 1.06

Query: Entry CCGTGTACATGGACCGGTTTTCCCGGTAATCCGTATTTGCT (site CCGTATACTAG) please
Result: 0.0403

Query: Now consider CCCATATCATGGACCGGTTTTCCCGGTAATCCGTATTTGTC (site CCGATATCTGA) .
Result: 0

Query: Continue with ACTCGCACATGGACCGGTTTTCCCGGTAATCCGTATTTGAC (site ACTCGCACTGT)
Result: 2.68

Query: Ok, now AATGTGTCATGGACCGGTTTTCCCGGTAATCCGTATTTGAA (site AATGTGTCTCT)
Result: 0.204

Query: Then what about the sequence GCCTGCCCATGGACCGGTTTTCCCGGTAATCCGTATTTGAT (site GCCTGCCCTAT) ?
Result: 0.201

Query: Now this one: GAGTAGTCATGGACCGGTTTTCCCGGTAATCCGTATTTGGA (site GAGTAGTCTTC)
Result: 2.7

Query: Record: CGAGCACCATGGACCGGTTTTCCCGGTAATCCGTATTTGGG (site CGAGAACCTCC)
Result: 0.00342
